B1: Ribonuclease HI, P0A7Y4 (parent)
chain: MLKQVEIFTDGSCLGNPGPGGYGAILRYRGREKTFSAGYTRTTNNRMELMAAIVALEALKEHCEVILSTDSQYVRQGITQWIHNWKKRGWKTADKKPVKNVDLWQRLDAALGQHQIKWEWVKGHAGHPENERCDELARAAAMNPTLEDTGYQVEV

Variants of: B1
Details: Escherichia coli (strain K12); pH 3; Thermal; CD; glycine-HCl 10 mM; NaCl 0.1 M; reversible: yes; structure 2RN2; whole UniProt chain shown
Use y when the recorded change of melting temperature, mutant - wild type (higher = more stable) is no lower than 0.8 °C; use n when it is lower.

    mutation_annotation  class_label
 0                 Q80L            y
 1                E135K            n
 2                 K95N            y
 3           E119V R41C            n
 4                K117R            n
 5                 A52V            y
 6           Q80L K117R            n
 7                 H62R            n
 8                 H62P            y
 9           E119V K60R            n
10                 G23A            y
11      H62P T40A K122R            y
12                 A24V            y
13                 H62D            y

Where do the numbers come from? From FireProtDB.
